The measured values listed here are drawn from the supplement of paper PMC12297408.

test system: Plasmodium falciparum NF54/iGP1_RE9H ulg8 stage V gametocytes; test: gametocyte viability (luciferase signal relative to DMSO control) (% of DMSO control); higher = less gametocytocidal activity, active = 50 or less; conditions: concentration: 1 µM; exposure time: 72 h
Structures can show the parent of a compound that is named as a salt. The campaign covered roughly 1,300 compounds. About 40 (3%) showed activity. The sample holds actives, similar compounds and a random draw of the others, so the mix is not that of the screen.
Observation Type: gametocyte viability
Lab note: jot down the number only; don't add units.

• C[N+]1([O-])[C@@H]2C[C@@H](OC(=O)[C@H](CO)c3ccccc3)C[C@H]1[C@@H]1O[C@@H]12 (stereo not given in full) [Scopolamin-N-oxide hydrobromide] = 91.5

Please give the measured gametocyte viability for this compound: CN1[C@@H]2CC[C@H]1C[C@@H](OC(=O)[C@H](CO)c1ccccc1)C2 86.7

* * *

system: Plasmodium falciparum NF54/iGP1_RE9H ulg8 stage V gametocytes; experiment: gametocyte viability (luciferase signal relative to DMSO control) (% of DMSO control); higher = less gametocytocidal activity, active = 50 or less; conditions: concentration: 1 µM; exposure time: 72 h
Where a name gives a salt, the structure may show the parent alone. Screen size: about 1,300 compounds; about 40 (3%) showed activity. What follows is part of a selection rich in actives, with near analogues and random picks from the rest.
Could you please pick one outcome from this set? yes (active), no (inactive)

What call does the record list for C#C[C@]1(O)CC[C@H]2[C@@H]3CCC4=CC(=O)CCC4=C3C=C[C@@]21CC [Gestrinone] ? no

What call does the record list for Fc1ccc(C(OCCN2CCN(CCCc3ccccc3)CC2)c2ccc(F)cc2)cc1 ? no

What call does the record list for CC[C@@]1([C@@H]2O[C@@H]([C@H]3O[C@@](O)(CO)[C@H](C)C[C@@H]3C)C[C@@H]2C)CC[C@H]([C@]2(C)CC[C@]3(C[C@H](O)[C@@H](C)[C@@H]([C@@H](C)[C@@H](OC)[C@H](C)C(=O)O)O3)O2)O1 [Monensin sodium salt] ? yes
